Tested on: SKOV-3 ovarian tumor cell
Assay: SKOV-3 cytotoxicity (MTT assay)
Type: cell-based
Details: Homo sapiens, SK-OV-3 cells, 72 hrs, concentration giving 50% cell survival
Field: CC50. Provide a value for each of the compounds that follow.
Returns: string containing the number followed by the unit.

Name the recorded CC50 of the item `CC[C@H](NC(=O)[C@H](C)NC)C(=O)N1C[C@@H](O)C[C@H]1Cc1c(-c2[nH]c3cc(F)ccc3c2C[C@@H]2C[C@H](O)CN2C(=O)[C@H](CC)NC(=O)[C@H](C)NC)[nH]c2cc(F)ccc12` in your answer.
0.14 nM

Name the recorded CC50 of the item `CN[C@@H](C)C(=O)N[C@H](C(=O)N1C[C@@H](O)C[C@H]1Cc1c(-c2[nH]c3cc(F)ccc3c2C[C@@H]2C[C@H](O)CN2C(=O)[C@@H](NC(=O)[C@H](C)NC)[C@H](C)O)[nH]c2cc(F)ccc12)[C@H](C)O` in your answer.
2 nM
